Tested on: A549
method-notes: Growth inhibition of human A549 cells by MTT assay
Type: functional, cell-based
Entries and their pIC50 values follow.
Scale explanation: pIC50 corresponds to minus log10 of a concentration expressed in moles per litre.

CC(=O)OC1=C(CC=C(C)C)C(=O)c2ccccc2C1=O ... 5.30
C=CCOC1=C(CC=C(C)C)C(=O)c2ccccc2C1=O ... 4.59
CCCCCCCCCCCCCC(=O)OC1=C(CC=C(C)C)C(=O)c2ccccc2C1=O ... 4.31

Give the measured pIC50 for CC(C)=CCC/C(C)=C/CC1=C(O)C(=O)c2ccccc2C1=O
4.92

Give the measured pIC50 for CC(C)=CCC1=C(O)C(=O)c2ccccc2C1=O
5.10

Give the measured pIC50 for CCCCCCCCCCCC(=O)OC1=C(CC=C(C)C)C(=O)c2ccccc2C1=O
4.46

Give the measured pIC50 for CC(C)=CCOC1=C(CC=C(C)C)C(=O)c2ccccc2C1=O
4.48

Give the measured pIC50 for CCCCCCCCCCCCCCCC(=O)OC1=C(CC=C(C)C)C(=O)c2ccccc2C1=O
4.42

Give the measured pIC50 for CCCCCCCC/C=C\CCCCCCCC(=O)OC1=C(CC=C(C)C)C(=O)c2ccccc2C1=O
4.23

All values here come from ChEMBL document CHEMBL3102839.
